The values you see were collected from the supplement of paper PMC9938120.

System: FMOC25_1 (patient-derived low-grade serous ovarian cancer cells)
Test: drug sensitivity score (DSS3, normalised partial AUC of % inhibition dose-response) (DSS (score)); higher = more sensitive (stronger inhibition of viability); extreme values may be limits of the assay
Conditions: 72 h; library: FO4B; assay format: 2D, 384-well, CellTiter-Glo
Classification field: enter Satisfied for drug sensitivity score values not below 7, Not satisfied for values below it.

compound	category
N#Cc1ccc(COC[C@H]2O[C@@H](n3c(NCc4ccc(Cl)c(Cl)c4)nc4c(N)ncnc43)[C@H](O)[C@@H]2O)cc1	Not satisfied
N#CC(c1ccnc(OCc2ccc(CN3CCOCC3)cc2)n1)c1nc2ccccc2s1 (stereo not given)	Not satisfied
N.N.[Cl][Pt][Cl] [Cisplatin]	Satisfied
CC(C)NC(=O)COc1cccc(-c2nc(Nc3ccc4[nH]ncc4c3)c3ccccc3n2)c1	Not satisfied

###

Tested on: FMOC11 (patient-derived high-grade serous ovarian cancer cells)
Assay: drug sensitivity score (DSS3, normalised partial AUC of % inhibition dose-response) (DSS (score)); higher = more sensitive (stronger inhibition of viability); extreme values may be limits of the assay
Details: 72 h; library: FO5A; assay format: 2D, 384-well, CellTiter-Glo
endpoint: drug sensitivity score

compound	numeric.readout
Nc1nc(N)c2nc(-c3cccc(O)c3)c(-c3cccc(O)c3)nc2n1	0.4
C[C@@H](Oc1cc(-c2cnn(C3CCNCC3)c2)cnc1N)c1c(Cl)ccc(F)c1Cl	0
C[C@@H]1C[C@H]2[C@@H]3CCC4=CC(=O)C=C[C@]4(C)[C@@]3(F)[C@@H](O)C[C@]2(C)[C@@]1(O)C(=O)CO	0
CNC(=O)c1ccc(-c2cnc3ncc(Cc4ccc5ncccc5c4)n3n2)cc1F	0
CS(=O)(=O)c1ccc(-c2cnc(N)c(C(=O)Nc3ccccc3)n2)cc1	0
NC(=S)N/N=C/c1ncccc1N	1.7
CNC(=O)c1ccc(N2C(=S)N(c3cnc(C#N)c(C(F)(F)F)c3)C(=O)C23CCC3)cc1F [Apalutamide]	0
NC(=O)c1cccc2cn(-c3ccc([C@@H]4CCCNC4)cc3)nc12	1.4

###

Tested on: FMOC22 (patient-derived mucinous ovarian cancer cells)
Test: drug sensitivity score (DSS3, normalised partial AUC of % inhibition dose-response) (DSS (score)); higher = more sensitive (stronger inhibition of viability); extreme values may be limits of the assay
Details: 72 h; library: FO5A; assay format: 2D, 384-well, CellTiter-Glo
As shown below, each of these molecules has a reported drug sensitivity score value.

molecule	drug sensitivity score
C=C1C[C@@H]2[C@H](CC[C@]3(C)C(=O)CC[C@@H]23)[C@@]2(C)C=CC(=O)C=C12 [Exemestane]	0
C[C@@H]1CN(C(=O)c2ccc(NC(=O)c3cc(O[C@H](C)c4c(Cl)ccc(F)c4Cl)c(N)nn3)cc2)C[C@H](C)N1 [Ensartinib]	0.1
CC(C)(C)C[C@@H]1N[C@@H](C(=O)N[C@H]2CC[C@H](O)CC2)[C@H](c2cccc(Cl)c2F)[C@]12C(=O)Nc1cc(Cl)ccc12	3.5
Cc1cc(Nc2cc(N3CCN(C)CC3)nc(/C=C/c3ccccc3)n2)n[nH]1 [ENMD-2076]	4.1
Nc1ncn([C@H]2C[C@H](O)[C@@H](CO)O2)c(=O)n1 [Decitabine]	0.1
O=C(c1ccc(OCCN2CCCCC2)cc1)c1c(-c2ccc(O)cc2)sc2cc(O)ccc12 [Raloxifene]	1.2
C/C=C1\NC(=O)[C@H]2CSSCC/C=C/[C@H](CC(=O)N[C@H](C(C)C)C(=O)N2)OC(=O)[C@H](C(C)C)NC1=O [Romidepsin]	26.3
N[C@@H]1CCCN(c2c(/C=C3\SC(=O)NC3=O)cccc2-c2ccccc2)C1 [AZD1208]	0
Cc1cc(Nc2cc(N3CCN(C)CC3)nc(Sc3ccc(NC(=O)C4CC4)cc3)n2)n[nH]1 [Tozasertib]	2.9
Cn1cnc2c(F)c(Nc3ccc(Br)cc3F)c(C(=O)NOCCO)cc21 [Binimetinib]	3.6
CCCCCCCCc1ccc(CCC(N)(CO)CO)cc1 [Fingolimod]	5.3
CNC(=O)c1ccccc1Nc1cc(Nc2ccc(N3CCOCC3)cc2OC)ncc1C(F)(F)F [VS-4718]	6
Cc1c(N)nc([C@H](CC(N)=O)NC[C@H](N)C(N)=O)nc1C(=O)N[C@H](C(=O)N[C@H](C)[C@@H](O)[C@H](C)C(=O)N[C@H](C(=O)NCCc1nc(-c2nc(C(=O)NCCC[S+](C)C)cs2)cs1)[C@@H](C)O)[C@@H](OC1OC(CO)C(O)C(O)C1OC1OC(CO)C(O)C(OC(N)=O)C1O)c1cnc[nH]1 (stereo partly specified) [Bleomycin]	0.8
CCN(CC)CCNC(=O)c1c(C)[nH]c(/C=C2\C(=O)Nc3ccc(F)cc32)c1C [Sunitinib]	0
Cc1nc(-c2cn3c(n2)-c2ccc(-c4cnn(C(C)(C)C(N)=O)c4)cc2OCC3)n(C(C)C)n1 [Taselisib]	2.9
COc1cc(Br)c(Nc2nc(-c3c(C)nc4ncccn34)cs2)c(Br)c1 [PTC-209]	4.5
O=C1CCC(N2C(=O)c3ccccc3C2=O)C(=O)N1 (stereo unspecified) [Thalidomide]	0
O=c1[nH]c(=O)n([C@H]2C[C@H](O)[C@@H](CO)O2)cc1F [Floxuridine]	9.3
Nc1nccc(-c2c(-c3ccc(F)cc3)ncn2C2CCCCC2)n1	0.4
CC(C)N(CCCNC(=O)Nc1ccc(C(C)(C)C)cc1)C[C@H]1O[C@@H](n2cc(Br)c3c(N)ncnc32)[C@H](O)[C@@H]1O [SGC0946]	0.1
CN1CC[C@H](c2c(O)cc(O)c3c(=O)cc(-c4ccccc4Cl)oc23)[C@H](O)C1 [Alvocidib]	12.8
Cc1cn(-c2cc(NC(=O)c3ccc(C)c(Nc4nccc(-c5cccnc5)n4)c3)cc(C(F)(F)F)c2)cn1 [Nilotinib]	1
O=C(CCCCCCC(=O)Nc1ccccc1)NO [Vorinostat]	4.6
COc1cc(N2CCC(N3CCN(C)CC3)CC2)ccc1Nc1ncc(Cl)c(Nc2ccccc2P(C)(C)=O)n1 [Brigatinib]	0.5
COC(=O)c1ccc([C@H]2c3[nH]c4ccccc4c3C[C@H](C(=O)OC)N2C(=O)CCl)cc1 [RSL3]	0
Cn1cc(CNCC2CCN(c3ncc(C(=O)NO)cn3)CC2)c2ccccc21 [Quisinostat]	8.1
CN1CCN(c2ccc3nc(-c4c(N)c5c(F)cccc5[nH]c4=O)[nH]c3c2)CC1 [Dovitinib]	0
Cc1cc2c(C(=O)NC[C@H](C)c3ccccc3)c(O)c(O)cc2c(O)c1-c1c(C)cc2c(C(=O)NC[C@H](C)c3ccccc3)c(O)c(O)cc2c1O [Sabutoclax]	10.8
CC[C@H](CO)Nc1nc(NCc2ccccc2)c2ncn(C(C)C)c2n1 [Seliciclib]	0
COc1cccc(-c2ccc(NC(=O)C3=C(C(=O)O)CCC3)c(F)c2)c1 [Vidofludimus]	0
Nc1nc2cc(-c3ccc4ncc(C(=O)N5CCOCC5)n4c3)ccc2o1 [Serabelisib]	2.1

###

Tested on: FMOC03 (patient-derived mucinous ovarian cancer cells)
Assay: drug sensitivity score (DSS3, normalised partial AUC of % inhibition dose-response) (DSS (score)); higher = more sensitive (stronger inhibition of viability); extreme values may be limits of the assay
Details: 72 h; library: FO5A; assay format: 2D, 384-well, CellTiter-Glo
endpoint: drug sensitivity score

molecule	numeric.readout
O=C(/C=C\n1cnc(-c2cc(C(F)(F)F)cc(C(F)(F)F)c2)n1)NNc1ccccn1 [Verdinexor]	8.2
COc1nc(N)nc2c1ncn2[C@@H]1O[C@H](CO)[C@@H](O)[C@@H]1O	0
Cc1nc2cccc(N)c2c(=O)n1C1CCC(=O)NC1=O (configuration not stated)	0
Nc1nccc(-c2c(-c3ccc(F)cc3)ncn2C2CCCCC2)n1	1.6
CCn1c(=O)c(-c2ccc(Cl)cc2Cl)cc2cnc(Nc3ccc(N4CCNCC4)c(F)c3)nc21	2.4
CCOCc1nc2c(N)nc3ccccc3c2n1CC(C)(C)O	0
CC1(C)CCC(c2ccc(Cl)cc2)=C(CN2CCN(c3ccc(C(=O)NS(=O)(=O)c4ccc(N[C@H](CCN5CCOCC5)CSc5ccccc5)c(S(=O)(=O)C(F)(F)F)c4)cc3)CC2)C1	6.9
CCCC(CCC)C(=O)O	0
Cn1cc(-c2cnn3c(N)c(Br)c([C@@H]4CCCNC4)nc23)cn1	0
CS(=O)(=O)c1ccc(-c2cnc(N)c(C(=O)Nc3ccccc3)n2)cc1	0
O=C(O)C(=O)O.[NH-][C@@H]1CCCC[C@H]1[NH-].[Pt+2]	8.8
Nc1nc(Cl)nc2c1ncn2[C@H]1C[C@H](O)[C@@H](CO)O1	0.5
Cc1ccc(NC(=O)c2ccc(CN3CCN(C)CC3)cc2)cc1Nc1nc(-c2cccnc2)cs1	3.6
O=C(Nc1cccnc1)N1CCC(Cc2cccc(Oc3ccc(C(F)(F)F)cn3)c2)CC1	2.3
COc1cc2ncnc(Nc3ccc(F)c(Cl)c3)c2cc1OCCCN1CCOCC1	16.2
COc1cc(C)c(/C=C/C(C)=C/C=C/C(C)=C/C(=O)O)c(C)c1C	0
CN(C)C1CCN(C(=O)c2ccc(NC(=O)Nc3ccc(-c4nc(N5CCOCC5)nc(N5CCOCC5)n4)cc3)cc2)CC1	8.2
